tested-target: T1, human Amyloid beta 1-42 peptide (Homo sapiens, UniProt P05067)
T1 construct: biotinylated human Amyloid beta 1-42 peptide (rpeptide, USA; cat: A1117); purchased rPeptide, USA A1117; host or cells: synthetic peptide
T1 sequence (P05067 672-713): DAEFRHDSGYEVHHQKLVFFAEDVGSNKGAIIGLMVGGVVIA
run-description: Surface Plasmon Resonance kinetic profiling of purified scFv (ProteOn)
Format: binding
assay-conditions: biotinylated human Amyloid beta 1-42 on streptavidin chip
measured-property: kd (s⁻¹)
Numbers only, in s⁻¹.

See these solved cases before continuing.
- molecule: "Abet0329: optimized anti-Aβ1-42 clone derived from Abet0144-GL (protein, left off: small tags and cut ends, optimized anti-Aβ1-42 clone derived from Abet0144-GL) scFv (part 1 of 2): EVQLLESGGGLVQPGGSLRLSCAASTFNLKRETMWWVRQAPGKGLEWVSVIGSHQERTSYADSVKGRFTISRDNSKNTLYLQMNSLRAEDTAVYYCAREWMDHSRPYYYYGMDVWGQGTLVTVSS scFv (part 2 of 2): SYELTQPPSVSVSPGQTASITCSGHNVSDKWMTWYQQKPGQSPVLVIYRDDKRPSGIPERFSASNSGHTATLTISGTQATDEADYYCSSQDTVTRVFGGGTKLTVL"
  kd (s⁻¹): 0.000138
- molecule: "Abet0321b: optimized anti-Aβ1-42 clone derived from Abet0144-GL (protein, left off: small tags and cut ends, optimized anti-Aβ1-42 clone derived from Abet0144-GL) scFv (part 1 of 2): EVQLLESGGGLVQPGGSLRLSCAASAYHSNHDPMWWVRQAPGKGLEWVSVIGSSGGTTAYADSVKGRFTISRDNSKNTLYLQMNSLRAEDTAVYYCAREWMDHSRPYYYYGMDVWGQGTLVTVSS scFv (part 2 of 2): SYELTQPPSVSVSPGQTASITCSGHNLEDKFASWYQQKPGQSPVLIIYRDDKRPSGIPERFSASNSGHTATLTISGTQATDEADYYCSSQDTVTRVFGGGTKLTVL"
  kd (s⁻¹): "3.33e-05"

*Q* What value of kd has been reported for the following molecule? Abet0373: optimized anti-Aβ1-42 clone derived from Abet0144-GL (protein, left off: small tags and cut ends, optimized anti-Aβ1-42 clone derived from Abet0144-GL) scFv (part 1 of 2): EVQLLESGGGLVQPGGSLRLSCVASGFDFERSVMWWVRQAPGKRLEWVSVIGSGKTNITYADSVKGRFTISRDNSKNTLYLQMNSLRAEDTAVYYCAREWMDHSRPYYYYGMDVWGQGTLVTVSS scFv (part 2 of 2): SYELTQPPSVSVSPGQTASITCSGHNLEDKFASWYQQKPGQSPVLVIYRDDKRPSEIPERFSASNSGHTATLTISGTQATDEADYYCSSQDTVTRVFGGGTKLTVL
*A* 8.92e-05
